- ASSAY_TARGET: human ether-à-go-go-related gene (hERG) potassium channel (human, UniProt Q12809);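 note: peak tail current of the secondary pulse compared with the same well before compound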
- Sequence (Q12809 whole entry, looked up): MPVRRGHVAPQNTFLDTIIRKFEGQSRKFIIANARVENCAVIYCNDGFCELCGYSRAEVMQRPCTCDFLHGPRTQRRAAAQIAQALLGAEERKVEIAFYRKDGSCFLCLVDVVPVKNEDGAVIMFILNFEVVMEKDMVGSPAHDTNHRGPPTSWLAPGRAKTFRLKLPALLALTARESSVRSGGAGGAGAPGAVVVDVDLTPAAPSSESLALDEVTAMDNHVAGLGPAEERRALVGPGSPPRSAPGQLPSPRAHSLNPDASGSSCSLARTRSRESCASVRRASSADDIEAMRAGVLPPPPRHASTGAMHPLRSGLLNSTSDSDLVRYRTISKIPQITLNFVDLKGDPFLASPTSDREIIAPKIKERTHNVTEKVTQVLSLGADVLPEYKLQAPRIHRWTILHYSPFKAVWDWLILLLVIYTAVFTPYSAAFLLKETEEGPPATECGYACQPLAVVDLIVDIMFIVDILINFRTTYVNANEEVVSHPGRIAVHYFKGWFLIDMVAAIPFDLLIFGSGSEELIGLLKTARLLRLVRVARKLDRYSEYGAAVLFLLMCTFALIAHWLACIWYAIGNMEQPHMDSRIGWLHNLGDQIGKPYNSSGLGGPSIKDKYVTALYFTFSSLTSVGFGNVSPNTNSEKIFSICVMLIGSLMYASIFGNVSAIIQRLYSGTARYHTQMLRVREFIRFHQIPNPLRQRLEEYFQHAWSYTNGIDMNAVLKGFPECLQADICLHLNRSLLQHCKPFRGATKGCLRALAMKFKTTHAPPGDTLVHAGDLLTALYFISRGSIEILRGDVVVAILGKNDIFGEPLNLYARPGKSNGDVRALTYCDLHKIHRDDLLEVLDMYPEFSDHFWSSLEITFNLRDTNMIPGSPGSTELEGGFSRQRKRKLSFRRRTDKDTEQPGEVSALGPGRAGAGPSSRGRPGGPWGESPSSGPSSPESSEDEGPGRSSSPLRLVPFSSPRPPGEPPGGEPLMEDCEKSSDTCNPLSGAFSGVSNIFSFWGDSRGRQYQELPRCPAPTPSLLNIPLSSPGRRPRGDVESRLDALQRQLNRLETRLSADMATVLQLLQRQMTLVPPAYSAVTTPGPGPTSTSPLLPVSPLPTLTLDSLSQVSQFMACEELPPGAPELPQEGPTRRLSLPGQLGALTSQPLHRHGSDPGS
- PROTOCOL_DETAILS: primary screen, population patch clamp on CHO cells stably expressing hERG; higher = less effect of the substance
About 14,000 (4.5%) of roughly 310,000 compounds showed an effect of 50% or more. The effect is printed as a negative number. Many of the other results were omitted from the sample, so strong results are more common in it than they were.
Think of -40% as a floor: if hERG current change (%, negative = inhibition) at 10uM stands on it or above, it is True; beneath it, False.

>  <COMPOUND>
Cc1ccc(C(c2cc(Cl)c3cccnc3c2O)N2CCN(C)CC2)cc1 (centres unmarked)

>  <CLASS_NAME>
True

$$$$
>  <COMPOUND>
C#Cc1ccc(C(=O)NCc2ccc(N3CCCC3=O)cc2)cc1

>  <CLASS_NAME>
True

$$$$
>  <COMPOUND>
CN1CCN(CCNC(=O)Nc2ccc([N+](=O)[O-])cc2)CC1

>  <CLASS_NAME>
True

$$$$
>  <COMPOUND>
CCOC(=O)C(CC(=O)Nc1nc(C(C)=O)c(C)s1)C(C)c1ccccc1 (centres unmarked)

>  <CLASS_NAME>
True

$$$$
>  <COMPOUND>
N#Cc1ccc(CN2CCN(CC(=O)NCCc3ccc(Cl)cc3Cl)CC2)cc1

>  <CLASS_NAME>
False

$$$$
>  <COMPOUND>
O=C(Cn1cnnn1)NCCc1ccc(Cl)cc1Cl

>  <CLASS_NAME>
True

$$$$
>  <COMPOUND>
COc1ccc(CN2CCNC(=O)C2CC(=O)NCC2CCOCC2)c(C)c1C (centres unmarked)

>  <CLASS_NAME>
True

$$$$
>  <COMPOUND>
CC(C)(C)c1cc(C(=S)N2CCN(CCO)CC2)cc(C(C)(C)C)c1O

>  <CLASS_NAME>
True

$$$$
>  <COMPOUND>
Br.COc1ccccc1NS(=O)(=O)c1cc(N2Cc3ccccc3C2=N)ccc1N1CCOCC1

>  <CLASS_NAME>
False

$$$$
>  <COMPOUND>
CCOC(=O)C1CCCN(C(=O)c2ccc(CNc3c(N4CCC(C)CC4)c(=O)c3=O)cc2)C1 (centres unmarked)

>  <CLASS_NAME>
True

$$$$
>  <COMPOUND>
O=C(CN1CCN(c2ccc(F)cc2)CC1)NCc1ccc(F)cc1

>  <CLASS_NAME>
False

$$$$
>  <COMPOUND>
CC1Nc2ncnc(N3CCN(c4ccccn4)CC3)c2N(Cc2ccccc2)C1=O.O=C(O)C(F)(F)F (centres unmarked)

>  <CLASS_NAME>
True

$$$$
>  <COMPOUND>
O=C(CN1CCNC(=O)C1)NCCc1ccc(Cl)cc1Cl

>  <CLASS_NAME>
True

$$$$
>  <COMPOUND>
O=C(NCCN1CCc2ccccc2C1)Nc1ccc(F)cc1

>  <CLASS_NAME>
True

$$$$
>  <COMPOUND>
CCc1nnc(NC(=O)c2ccc3c(c2)C(=O)N(C(C)(C)C)C3=O)s1

>  <CLASS_NAME>
True

$$$$
>  <COMPOUND>
COc1ccc(-c2ccc(-c3noc(-c4ccccc4C)n3)c(OC)n2)cc1

>  <CLASS_NAME>
True

$$$$
>  <COMPOUND>
Br.N=C1c2ccccc2CN1c1ccc(N2CCOCC2)c(S(=O)(=O)Nc2ccc(Cl)cc2)c1

>  <CLASS_NAME>
False

$$$$
>  <COMPOUND>
O=C(NCCN1CCCCC1)Nc1ccc([N+](=O)[O-])cc1

>  <CLASS_NAME>
False

$$$$
>  <COMPOUND>
O=S(=O)(Nc1ccc(N2CCOCC2)cc1)c1cc(Cl)ccc1Cl

>  <CLASS_NAME>
True

$$$$
>  <COMPOUND>
O=C(CCS(=O)(=O)c1cc(Br)cc2c1N(C(=O)C1CC1)CC2)NCC1CCCO1 (centres unmarked)

>  <CLASS_NAME>
True

$$$$
>  <COMPOUND>
O=C(COC(=O)c1ccc(Sc2ccccc2)c([N+](=O)[O-])c1)NC1CCS(=O)(=O)C1 (centres unmarked)

>  <CLASS_NAME>
False

$$$$
>  <COMPOUND>
Cn1ncn2c(=O)c3c(nc12)-c1ccccc1CC31CCCC1

>  <CLASS_NAME>
True

$$$$
>  <COMPOUND>
CCC1Nc2ncnc(N3CCN(c4ccccc4)CC3)c2N(Cc2ccc(Cl)cc2)C1=O.O=C(O)C(F)(F)F (centres unmarked)

>  <CLASS_NAME>
True

$$$$
>  <COMPOUND>
COc1ccccc1N1CCN(C2CC(=O)N(c3ccc(F)cc3)C2=O)CC1 (centres unmarked)

>  <CLASS_NAME>
True

$$$$
>  <COMPOUND>
CN1CCN(C(c2ccc(Cl)cc2)c2cc(Cl)c3cccnc3c2O)CC1 (centres unmarked)

>  <CLASS_NAME>
True

$$$$
>  <COMPOUND>
COc1ccccc1NS(=O)(=O)c1cc(NC(=O)C2CC2)ccc1N1CCOCC1

>  <CLASS_NAME>
True

$$$$
>  <COMPOUND>
CCc1ccc(NC(=O)NCCN2CCc3ccccc3C2)cc1

>  <CLASS_NAME>
False

$$$$
>  <COMPOUND>
CCC1Nc2ncnc(N3CCN(c4ccccn4)CC3)c2N(Cc2ccc(Cl)cc2)C1=O.O=C(O)C(F)(F)F (centres unmarked)

>  <CLASS_NAME>
False

$$$$
>  <COMPOUND>
CCC(=O)Nc1ccc(N2CCOCC2)c(S(=O)(=O)Nc2ccc(Cl)cc2)c1

>  <CLASS_NAME>
True

$$$$
>  <COMPOUND>
CCN1CCN(C(c2cccnc2)c2cc(Cl)c3cccnc3c2O)CC1 (centres unmarked)

>  <CLASS_NAME>
False

$$$$
>  <COMPOUND>
Cc1ccc(C)c(CN2C(=O)CSc3ccc(C(=O)NCC(C)CN4CCC(C)CC4)cc32)c1 (centres unmarked)

>  <CLASS_NAME>
False

$$$$
>  <COMPOUND>
CS(=O)(=O)c1ccc(C(=O)OCC(=O)NC2CCS(=O)(=O)C2)cc1[N+](=O)[O-] (centres unmarked)

>  <CLASS_NAME>
True

$$$$
>  <COMPOUND>
CCOC(=O)c1ccc(S(=O)(=O)NCCN(CC)CC)cc1.Cl

>  <CLASS_NAME>
True

$$$$
>  <COMPOUND>
COc1ccc(CNC(=O)CN2CCN(c3ccccc3)CC2)cc1

>  <CLASS_NAME>
True

$$$$
>  <COMPOUND>
COc1ccc2nc(SCC(=O)NCCc3ccccc3)[nH]c2c1

>  <CLASS_NAME>
True

$$$$
>  <COMPOUND>
O=C(NCCN1CCc2ccccc2C1)Nc1ccc([N+](=O)[O-])cc1

>  <CLASS_NAME>
False

$$$$
>  <COMPOUND>
COCC1CCN(C(=O)c2cc(COc3ccc4c(c3)CCCC4)on2)C1 (centres unmarked)

>  <CLASS_NAME>
True

$$$$
>  <COMPOUND>
Cc1ccc(CN2C(=O)C(CC(C)C)Nc3ncnc(N4CCN(c5ccccn5)CC4)c32)cc1.O=C(O)C(F)(F)F (centres unmarked)

>  <CLASS_NAME>
False

$$$$
